# TGT: T1, 4H1579-AA
# T1 chain: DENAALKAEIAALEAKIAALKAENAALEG
# EXPERIMENT: two-hybrid library CCmax;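 also: natural log of median RNA to DNA barcode read ratio; higher means stronger binding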
# CONDITIONS_USED: mean of both orientations
Measured interaction score values are reported for all entries that follow.
The answer should be written as a number, with no unit following it.

Consider the following illustrative entries.
# BINDER, ENDPOINT_RESULT
rows = [
    ("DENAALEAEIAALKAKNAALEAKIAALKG [4H1142-AA]", -1.39),
    ("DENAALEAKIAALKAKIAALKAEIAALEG [4H1385-AA]", -0.0818),
    ("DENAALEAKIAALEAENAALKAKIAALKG [4H1310-AA]", -1.2),
]

// switching to the query binder
Query block: I have this binder here, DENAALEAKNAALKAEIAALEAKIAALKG [4H1478-AA] , and I need its recorded interaction score.
Result block: -0.103
